All values here come from patent US10351522B2.

Biological target: human OX1R (Homo sapiens, UniProt O43613)
Construct: expressed in transfected cells; host or cells: CHO (Chinese hamster ovary) cells, line CHOOX1R, co-expressing NFAT-luciferase
Test: Agonist activity against OX1R: intracellular calcium (Fura-2AM, FDSS7000) in CHOOX1R cells
Assay type: cell-based
Settings: 10 μM test compound; relative to orexin-A as full agonist (100%)
Experimental: Evaluation of Agonist Activity Against OX1R and OX2R […] (As used herein, Response in Table 21 to Table 27 is a value obtained by dividing the agonist activity value, when the test compound is evaluated with orexin-A as a full-agonist (maximum value of agonist activity: 100%), at 10 μM, 1.0 μM, 0.1 μM by the agonist activity value of orexin-A.)
readoutType: Response (%) OX1R
Report as a plain number; the unit % is understood.

Examples with answers:
> print(dat)
                            molecularstring  obsvalue
1  COc1ccc(-c2cccc(C(=O)N(C)C)c2)cc1S(=O)(=O)Nc1cccc(NC(=O)c2ccccc2Br)c1        32
2  COc1ccc(-c2cccc(C(=O)N(C)C)c2)cc1S(=O)(=O)Nc1cccc(NCc2ccccc2C)c1         6

Now look at this one.
# Response (%) OX1R lookup, item COc1ccc(-c2cccc(C(=O)N(C)C)c2)cc1S(=O)(=O)Nc1cccc(NC(=S)Nc2cccc(C)c2)c1 55

====

This section presents compounds with their documented Response (%) OX2R values.
biological target: human OX2R (Homo sapiens, UniProt O43614); construct: expressed in transfected cells; host or cells: CHO (Chinese hamster ovary) cells, line CHOOX2R, co-expressing NFAT-luciferase; assay: Agonist activity against OX2R: intracellular calcium (Fura-2AM, FDSS7000) in CHOOX2R cells; format: cell-based; details: 1.0 μM test compound; relative to orexin-A as full agonist (100%)
Sequence (O43614 whole entry): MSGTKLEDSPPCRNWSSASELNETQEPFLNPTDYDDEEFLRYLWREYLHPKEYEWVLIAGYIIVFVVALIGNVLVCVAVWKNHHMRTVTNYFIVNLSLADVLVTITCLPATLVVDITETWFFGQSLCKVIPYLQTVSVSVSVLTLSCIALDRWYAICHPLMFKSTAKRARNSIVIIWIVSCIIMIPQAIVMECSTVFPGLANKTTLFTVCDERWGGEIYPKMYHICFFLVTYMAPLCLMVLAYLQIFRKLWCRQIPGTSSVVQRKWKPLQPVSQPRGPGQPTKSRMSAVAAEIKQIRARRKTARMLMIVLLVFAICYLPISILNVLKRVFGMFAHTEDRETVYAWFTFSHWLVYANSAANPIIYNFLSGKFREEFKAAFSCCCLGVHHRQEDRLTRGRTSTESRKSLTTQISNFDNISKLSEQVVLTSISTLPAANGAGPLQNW
Write the number in % without appending the unit.

> print(dat)
                            molecularstring  obsvalue
1  COc1ccc(-c2cccc(C(=O)N(C)C)c2)cc1S(=O)(=O)Nc1cccc(NC(=O)c2ccccc2N(C)C)c1        17
2  COc1ccc(-c2cccc(C(=O)N(C)C)c2)cc1S(=O)(=O)Nc1cccc(NC(=S)Nc2cccc(C)c2)c1        90
3  COc1ccc(-c2cccc(C(=O)N(C)C)c2)cc1S(=O)(=O)Nc1cccc(NC(=O)OC(C)(C)C)c1        13
4  COc1ccccc1C(=O)Nc1cccc(NS(=O)(=O)c2cc(-c3cccc(C(=O)N(C)C)c3)ccc2OC)c1         6
5  COc1ccc(-c2cccc(C(=O)N(C)C)c2)cc1S(=O)(=O)Nc1cccc(NC(=O)c2ccc3ccccc3c2)c1        41
6  COc1ccc(-c2cccc(C(=O)N(C)C)c2)cc1S(=O)(=O)Nc1cccc(NC(=O)Nc2cc([N+](=O)[O-])cc([N+](=O)[O-])c2)c1        81
7  COC(=O)c1cccc(NC(=O)Nc2cccc(NS(=O)(=O)c3cc(-c4cccc(C(=O)N(C)C)c4)ccc3OC)c2)c1        97
8  COc1ccc(-c2cccc(C(=O)N(C)C)c2)cc1S(=O)(=O)Nc1cccc(NC(=O)Nc2cccc(C)c2)c1        82

// lookup Response (%) OX2R for COc1ccc(-c2cccc(C(=O)N(C)C)c2)cc1S(=O)(=O)Nc1cccc(NCc2ccccc2C)c1 72

And then COc1ccc(-c2cccc(C(=O)N(C)C)c2)cc1S(=O)(=O)Nc1cccc(NC(=O)Nc2cccc(NC(=O)OC(C)(C)C)c2)c1 , what is it? 7

Try this compound too: COc1ccc(-c2cccc(C(=O)N(C)C)c2)cc1S(=O)(=O)Nc1cccc(NC(=O)Nc2ccccc2C)c1 85

====

Overview of reported Response (%) OX2R across a group of molecules:
biological target: human OX2R (Homo sapiens, UniProt O43614); construct: expressed in transfected cells; host or cells: CHO (Chinese hamster ovary) cells, line CHOOX2R, co-expressing NFAT-luciferase; assay: Agonist activity against OX2R: intracellular calcium (Fura-2AM, FDSS7000) in CHOOX2R cells; type: cell-based; conditions: 1.0 μM test compound; relative to orexin-A as full agonist (100%)
Supply the numeric figure in %, leaving out any unit text.

Name the reported Response (%) OX2R value associated with the molecule COc1cccc(NC(=O)Nc2cccc(NS(=O)(=O)c3cc(-c4cccc(C(=O)N(C)C)c4)ccc3OC)c2)c1 [Example 44] 104

====

Target: human OX1R (Homo sapiens, UniProt O43613)
Construct: expressed in transfected cells; host or cells: CHO (Chinese hamster ovary) cells, line CHOOX1R, co-expressing NFAT-luciferase
Sequence (O43613 1-425): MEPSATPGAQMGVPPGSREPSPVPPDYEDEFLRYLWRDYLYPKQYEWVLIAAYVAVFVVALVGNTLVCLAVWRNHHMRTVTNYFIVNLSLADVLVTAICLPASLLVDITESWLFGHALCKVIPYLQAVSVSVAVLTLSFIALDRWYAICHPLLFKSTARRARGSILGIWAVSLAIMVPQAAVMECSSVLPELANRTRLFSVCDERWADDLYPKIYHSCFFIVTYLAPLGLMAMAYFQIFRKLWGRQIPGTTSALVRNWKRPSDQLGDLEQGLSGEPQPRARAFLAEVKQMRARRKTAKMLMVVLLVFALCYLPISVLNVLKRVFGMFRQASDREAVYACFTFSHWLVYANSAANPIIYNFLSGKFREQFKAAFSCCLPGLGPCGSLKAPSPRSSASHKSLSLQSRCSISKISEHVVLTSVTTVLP
Experiment: Agonist activity against OX1R: intracellular calcium (Fura-2AM, FDSS7000) in CHOOX1R cells
Assay type: cell-based
Details: test compound 1.0 μM; relative to orexin-A as full agonist (100%)
Entries annotated with measured Response (%) OX1R

Study these solved cases before continuing.
> print(dat)
                            molecularstring        readouttype  obsvalue
1  COc1ccc(C(=O)Nc2cccc(N(C)C)c2)cc1S(=O)(=O)Nc1cccc(NC(=O)Nc2cccc(N(C)C)c2)c1  Response (%) OX1R        7%
2  COc1ccc(-c2cccc(C(=O)N(C)C)c2)cc1S(=O)(=O)Nc1cccc(NS(C)(=O)=O)c1  Response (%) OX1R       <5%
3  CCN(Cc1ccccc1)C(=O)c1ccc(OC)c(S(=O)(=O)Nc2cccc(NC(=O)Nc3cccc(N(C)C)c3)c2)c1  Response (%) OX1R       <5%
4  Cc1ccc(-c2cccc(C(=O)N(C)C)c2)cc1S(=O)(=O)Nc1cccc(NC(=O)Nc2cccc(N(C)C)c2)c1  Response (%) OX1R       <5%

Any idea what Response (%) OX1R was measured for COc1ccc(-c2cccc(C(=O)N(C)C)c2)cc1S(=O)(=O)Nc1cccc(N2CCCN(c3ccccc3)C2=O)c1 ? <5%

Okay, and CN(C)C(=O)c1cccc(-c2ccc(Cl)c(S(=O)(=O)Nc3cccc(NC(=O)Nc4cccc(N(C)C)c4)c3)c2)c1 ? 8%

====

biological target: human OX1R (Homo sapiens); construct: expressed in transfected cells; host or cells: CHO (Chinese hamster ovary) cells, line CHOOX1R, co-expressing NFAT-luciferase; experiment: Agonist activity against OX1R: intracellular calcium (Fura-2AM, FDSS7000) in CHOOX1R cells; format: cell-based; details: read-out: Response (%) OX1R
readoutType: Emax at 1 µM (%)
The answer is to be given in %; state only the numeric part.

Illustrative cases are given below, each with its answer.
> print(dat)
                            molecularstring                        tgt  unitinfo  obsvalue
1  COc1ccc(-c2cccc(C(=O)N(C)C)c2)cc1S(=O)(=O)Nc1cccc(NC(=O)N(C)c2cccc(N(C)C)c2)c1  human OX1R (Homo sapiens)         %         7
2  COc1ccc(-c2cccc(C(=O)N(C)C)c2)cc1S(=O)(=O)Nc1cccc(NC(=O)Nc2cccc(N(C)C)c2)c1OC  human OX1R (Homo sapiens)         %         6

Next:
Fill in the recorded Emax at 1 µM for this compound, with human OX1R (Homo sapiens) as test system: COc1ccc(-c2cccc(C(=O)N(C)C)c2)cc1S(=O)(=O)Nc1cccc(N(C)C(=O)N(C)c2cccc(N(C)C)c2)c1 5

====

Below: a set of entries, each annotated with reported Emax at 0.1 µM.
biological target: human OX1R (Homo sapiens); construct: expressed in transfected cells; host or cells: CHO (Chinese hamster ovary) cells, line CHOOX1R, co-expressing NFAT-luciferase; assay: Agonist activity against OX1R: intracellular calcium (Fura-2AM, FDSS7000) in CHOOX1R cells; type: cell-based; settings: read-out: Response (%) OX1R

> print(dat)
                            molecularstring  obsvalue
1  COc1ccc(-c2cccc(C(=O)N(C)C)c2)cc1S(=O)(=O)Nc1cccc(N(C)C(=O)N(C)c2cccc(N(C)C)c2)c1        5%
2  COc1ccc(-c2cccc(C(=O)N(C)C)c2)cc1S(=O)(=O)Nc1cccc(N2CCN(c3ccccc3)C2=O)c1      < 5%

# input for lookup
Query (compound): COc1ccc(-c2cccc(C(=O)N(C)C)c2)cc1S(=O)(=O)Nc1cccc(Nc2ccccc2)c1 ; field requested: Emax at 0.1 µM < 5%
